assay overview: Cytotoxicity against mouse NIH/3T3 cells expressing pgp assessed as cell survival at >30 to 50 uM after 72 hrs by MTT assay
Format: ADME, cell-based, NIH3T3
particulars: NIH/3T3 cells expressing P-gp
Response field label: string, one of 1 (IC50 at 72 h strictly below 50 µM) or -1.

{"columns": ["molecule smiles", "group label"],
 "data": [
  ["O=C[C@H](Cc1ccc(O)cc1)NC(=O)N(Cc1ccccc1)N1CCCCC1", -1],
  ["COc1cccc(CN(C(=O)N[C@H](C=O)Cc2ccccc2)N2CCCCC2)c1", 1],
  ["CN(C)N(Cc1ccccc1)C(=O)N[C@H](C=O)Cc1ccccc1", -1],
  ["O=C[C@H](Cc1ccccc1)NC(=O)N(Cc1cccc(O)c1)N1CCCCC1", 1]
]}
